- measured target: T1, IGF-IR-Fc (human, UniProt P08069 31-932)
- T1 construct: range 1-932; Made in house by transient transfection, captured on Protein A on CM5 chips for kinetic analysis; also called human IGF-IR-Fc fusion protein; recombinant, immobilized IGF-IR (BIAcore); not shown: hinge and constant regions of human IgG1
- assay info: SPR (BIAcore); IGF-IR-Fc captured on Protein A, clone in solution
test readout: kon (M⁻¹ s⁻¹)

Use these answered entries as a reference point.
| binder | kon (M⁻¹ s⁻¹) |
| --- | --- |
| 353F10 (designed binder, Optimized derivative of 218C04) VSDVPRDLEVVAATPTSLLISWPTHYKVARYYRITYGETGGNSPVQEFTVPKHTYTATISGLKPGVDYTITVYAVTTTKGLRHYGPISINYRTHHHHHH | 3.7e+06 |
| 339A01 (designed binder, Optimized derivative of 218C04) VSDVPRDLEVVAATPTSLLISWSTALKVQRYYRITYGETGGNSPVQEFTVPKHSHTATISGLKPGVDYTITVYAVTKMRDYRPISINYRTHHHHHH | 1.2e+06 |
| 338A05 (designed binder, Optimized derivative of 218C04) VSDVPRDLEVVAATPTSLLISWSDSLKVSRYYRITYGETGGNSPVQEFTVPKQYHTATISGLKPGVDYTITVYAVTPSNIIGRHYGPISINYRTHHHHHH | 1.3e+06 |

[1] 354A10 (designed binder, Optimized derivative of 218C04) VSDVPRDLEVVAATPTSLLISWSNRLVVKRYYRITYGETGGNSPVQEFTVPHQMKTATISGLKPGVDYTITVYAVTPGGYSGRNYGPISINYRTHHHHHH
[2] 353H09 (designed binder, Optimized derivative of 218C04) VSDVPRDLEVVAATPTSLLISWSDKLKVQRYYRITYGETGGNSPVQEFTVPKHDRTATISGLKPGVDYTITVYAVTKMRDYRPISINYRTHHHHHH
Given the listed records, identify the one among 1 and 2 with higher kon. // output: label of the selected item
2
(2: 3.8e+06 M⁻¹ s⁻¹, 1: 1.1e+06 M⁻¹ s⁻¹)
